A collection of binders and their measured IC50, HTRA1 enzyme assay
Target: HTRA1 (construct not given) (Homo sapiens (Human), UniProt Q92743 23-480, limits assumed)
Sequence (Q92743 23-480 limits assumed): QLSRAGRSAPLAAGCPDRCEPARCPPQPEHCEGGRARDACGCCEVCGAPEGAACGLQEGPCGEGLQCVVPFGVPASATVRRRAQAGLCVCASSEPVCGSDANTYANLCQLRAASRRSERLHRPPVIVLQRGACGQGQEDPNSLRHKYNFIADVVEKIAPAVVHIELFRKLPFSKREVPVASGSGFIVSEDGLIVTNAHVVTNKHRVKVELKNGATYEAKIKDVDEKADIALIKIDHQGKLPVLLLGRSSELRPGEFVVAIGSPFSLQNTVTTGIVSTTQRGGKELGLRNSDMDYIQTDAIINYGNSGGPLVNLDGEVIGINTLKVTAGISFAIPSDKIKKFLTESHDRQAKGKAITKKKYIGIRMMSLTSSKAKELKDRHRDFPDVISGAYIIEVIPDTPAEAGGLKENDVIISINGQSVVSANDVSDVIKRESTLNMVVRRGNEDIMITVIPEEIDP
Experiment: cell-based or functional assay
Express it in nM; write the number only.

Known IC50, HTRA1 enzyme assay results, listed for orientation:
Challenge: Which IC50, HTRA1 enzyme assay is reported for this binder? hz24F7.v2 S92D (antibody, human IgG1, kappa, N297G, V domains shown, hz24F7.v2 with a substitution in light chain CDR3) VH: QVQLVQSGAEVKKPGASVKVSCKASGYTFTDYEMHWVRQAPGQRLEWMGAIDPETGGTAYNQKFKGRVTITADKSASTAYMELSSLRSEDTAVYYCTREGYSYEGGGYYFDYWGQGTLVTVSS VL: DIQMTQSPSSLSASVGDRVTITCSVSSSVSYMYWYQQKPGKAPKLLIYDTSNLASGVPSRFSGSGSGTDFTFTISSLQPEDIATYYCQQWSDYPTFGQGTKLEIKR
Response given: 0.067

Challenge: Which IC50, HTRA1 enzyme assay is reported for this binder? hz24F7.v2 S92T (antibody, human IgG1, kappa, N297G, V domains shown, hz24F7.v2 with a substitution in light chain CDR3) VH: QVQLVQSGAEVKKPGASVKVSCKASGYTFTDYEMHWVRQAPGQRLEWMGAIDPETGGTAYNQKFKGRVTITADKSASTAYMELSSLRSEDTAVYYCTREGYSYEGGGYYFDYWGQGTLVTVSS VL: DIQMTQSPSSLSASVGDRVTITCSVSSSVSYMYWYQQKPGKAPKLLIYDTSNLASGVPSRFSGSGSGTDFTFTISSLQPEDIATYYCQQWSTYPTFGQGTKLEIKR
Response given: 0.098

Kindly consider the entry below.
Challenge: Which IC50, HTRA1 enzyme assay is reported for this binder? hz24F7.v2 S91L (antibody, human IgG1, kappa, N297G, V domains shown) VH: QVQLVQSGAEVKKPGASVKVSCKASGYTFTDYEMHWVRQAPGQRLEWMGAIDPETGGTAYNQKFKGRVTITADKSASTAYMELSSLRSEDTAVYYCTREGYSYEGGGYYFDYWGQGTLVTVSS VL: DIQMTQSPSSLSASVGDRVTITCSVSSSVSYMYWYQQKPGKAPKLLIYDTSNLASGVPSRFSGSGSGTDFTFTISSLQPEDIATYYCQQWLSYPTFGQGTKLEIKR
Response given: 0.084
